Assay: The drug is tested on Ruminococcus torques strain: ATCC27756 for biotransformation. The drug concentrations were measured before and after a 12-h incubation by liquid-chromatography-coupled mass spectrometry (LC–MS)
Format: ADME
Parameters: dose 2 uM, timepoint 0 vs 12 hours
Conditions: 2 µM
ASSAY READOUT: Bacterial Biotransformation

• O=P(O)(O)O.c1ccc(CN(CC2=NCCN2)c2ccccc2)cc1 [ANTAZOLINE PHOSPHATE] = Compound NOT metabolized
• COCCc1ccc(OCC(O)CNC(C)C)cc1.COCCc1ccc(OCC(O)CNC(C)C)cc1.O=C(O)C(O)C(O)C(=O)O (stereo not drawn) [METOPROLOL TARTRATE] = Compound NOT metabolized
• CCOc1ccccc1OCCN[C@H](C)Cc1ccc(OC)c(S(N)(=O)=O)c1.Cl [TAMSULOSIN HYDROCHLORIDE] = Compound NOT metabolized
• CCN(CC)CCOCCOC(=O)C1(c2ccccc2)CCCC1.O=C(O)CC(O)(CC(=O)O)C(=O)O [CARBETAPENTANE CITRATE] = Compound metabolized
• CN(CCOc1ccc(CC2SC(=O)NC2=O)cc1)c1ccccn1.O=C(O)/C=C\C(=O)O (stereo not drawn) [ROSIGLITAZONE MALEATE] = Compound NOT metabolized
• COc1ccc2[nH]c([S+]([O-])Cc3ncc(C)c(OC)c3C)nc2n1 (stereo not drawn) = Compound metabolized
• COc1ccc([C@@H]2Sc3ccccc3N(CCN(C)C)C(=O)[C@@H]2OC(C)=O)cc1 = Compound metabolized
• O=C(O)c1cc(/N=N/c2ccc(S(=O)(=O)Nc3ccccn3)cc2)ccc1O = Compound metabolized
